Parameter: Enzyme degradation CDK9 (% remaining) @ 1 μM. Scope: all listed entries.
# test.target: CDK9 (Homo sapiens)
# Construct: endogenous in cells; host or cells: MDA-MB-231
# Sequence (P50750 whole entry): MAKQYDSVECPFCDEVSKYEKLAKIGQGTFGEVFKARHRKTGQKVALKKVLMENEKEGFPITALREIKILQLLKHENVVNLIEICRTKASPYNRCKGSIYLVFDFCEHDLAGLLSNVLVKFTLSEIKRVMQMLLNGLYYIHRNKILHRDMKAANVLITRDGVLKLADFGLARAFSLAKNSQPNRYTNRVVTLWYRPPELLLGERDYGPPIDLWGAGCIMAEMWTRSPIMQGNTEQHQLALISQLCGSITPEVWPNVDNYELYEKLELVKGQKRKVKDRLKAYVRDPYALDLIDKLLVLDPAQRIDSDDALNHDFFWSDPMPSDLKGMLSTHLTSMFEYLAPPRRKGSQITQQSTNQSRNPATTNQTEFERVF
# test.details: CDK protein degradation activity (Western blotting), CDK9
# Format: cell-based
# experimental.context: MDA-MB-231 cells, 1 μM, 16 hours, Western blot
property.name: Enzyme degradation CDK9 (% remaining) @ 1 μM

molecule	recorded.measurement
Cc1cccc(C(=O)N[C@H]2C[C@@H](n3cnc4c(NC5CCN(CCC6CCN(C(=O)CNc7ccc8c(c7)C(=O)N([C@H]7CCC(=O)NC7=O)C8=O)CC6)CC5)ncnc43)C2)n1 (racemic)	0/0/0%
O=C1CC[C@H](N2C(=O)c3ccc(NCC(=O)N4CCC5(CC4)CC(N4CCN(c6ccc(Nc7ncnc8c7ncn8[C@H]7C[C@@H](NC(=O)Cc8ccccc8)C7)cc6)CC4)C5)cc3C2=O)C(=O)N1	0/0/0%
Cc1cccc(C(=O)N[C@H]2C[C@@H](n3cnc4c(NCc5cccc(N6CCN(C(=O)CNc7ccc8c(c7)C(=O)N([C@H]7CCC(=O)NC7=O)C8=O)CC6)c5)ncnc43)C2)n1	60/60/60%
Cc1cccc(C(=O)N[C@H]2C[C@@H](n3cnc4c(Nc5ccc(N6CCN(C7CC8(CCN(c9ccc%10nnn([C@H]%11CCC(=O)NC%11=O)c(=O)c%10c9)CC8)C7)CC6)cc5)ncnc43)C2)n1	0/0/0%
Cc1cccc(C(=O)N[C@H]2C[C@@H](n3cnc4c(NCc5ccc(N6CCN(CC7CCN(c8ccc9c(c8)C(=O)N([C@H]8CCC(=O)NC8=O)C9=O)CC7)CC6)cc5)ncnc43)C2)n1	0/0/0%
Cc1cccc(C(=O)N[C@H]2C[C@@H](n3cnc4c(NCCC5CCN(CC6CCN(C(=O)COc7ccc8c(c7)C(=O)N([C@H]7CCC(=O)NC7=O)C8=O)CC6)CC5)ncnc43)C2)n1	0/0/0%
